# assay-info: growth suppression of PTEN-deleted HCT116, pilot screen, cell-based, HCT116 clonal line, CellTiter-Glo (AID 824);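 note: 0% = 20 µM Hyamine control and 100% = vehicle cell control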
# condition-description: 60 h, at 10 µM, stronger effect = lower value
Results filed as inconclusive are left out.
endpoint-label: viability (%)

molecule | assay-value
O=C(CSCc1ccc(Cl)cc1)c1ccco1 | 89.8
O=C(Nc1ccccc1C(=O)NCc1ccco1)c1ccccc1 | 90.5
Cc1cc(C(C)(C)C)ccc1OCCN(C)C | 94.9
Cn1c(=O)[nH]c(=O)c2c1nc(SCCN1CCOCC1)n2CCCc1ccccc1 | 85.5
CCOC(=O)C1=C(C)Nc2nc(C)nn2C1c1ccc(OC)c(OC)c1 (stereo unspecified) | 102
CCc1nn(CC(=O)NCCCN2CCCC2=O)c(=O)c2cc3sccc3n12 | 108
COCCNC(=O)c1cc2c(=O)n(C)c3ccccc3c2n1C | 84.4
Cc1sc2nc(SCC(=O)NCc3ccco3)[nH]c(=O)c2c1C | 101
CC1CCN(C(=O)CN2C(=O)C(=O)c3ccccc32)CC1 | 97.1
CC1(C)Oc2ccc3ccc(=O)oc3c2-c2cnoc21 | 96.3
CCOC(=O)c1[nH]c(C)c(C(=O)NC(C)CC)c1C (stereo unspecified) | 99.7
CCCOc1ccc(C(=O)NCCC(=O)NCCCC(=O)OCC)cc1 | 104
COc1cc(NC(=O)CCCC(=O)OCC(F)(F)C(F)F)nc(OC)n1 | 98.9
O=C(CCCc1ccccc1)NCc1cn2ccsc2n1 | 105
Cn1nc(-c2ccc(Cl)cc2)c2cc(C(=O)NCCCN3CCOCC3)sc21 | 5.19
Cc1ccccc1NC(=O)NCCN1C(=O)C2C3C=CC(C3)C2C1=O (stereo unspecified) | 102
O=C(c1ccccc1)N1CCN(c2ccc(NCc3ccc4c(c3)OCO4)cc2)CC1 | 75.8
CCn1c(=O)cc(O)c2ccccc21 | 94
O=C(c1ccc(CS(=O)(=O)c2ccc(Br)cc2)o1)N1CCCCCC1 | 92.2
COc1cccc(-c2nn(C)c3sc(C(=O)N4CCOCC4)cc23)c1 | 94.9
O=C(C1CCCN(c2nnc(-n3cccc3)s2)C1)N1CCN(c2ccccc2)CC1 (stereo unspecified) | 86.5
CCN1C(=O)NC2C1N(S(C)(=O)=O)CCN2S(C)(=O)=O (stereo unspecified) | 92.1
COc1ccccc1N1CSC2=C(C#N)C(c3ccc(SC)cc3)CC(=O)N2C1 (stereo unspecified) | 94.7
CCOC(=O)C(C)c1nn(C)c(=O)c2ccccc12 (stereo unspecified) | 92.7
CCOC(=O)N1CCN(c2cc(C)nc3nc(C)nn23)CC1 | 97.1
CC(=O)c1cccc(NC(=O)c2c(F)c(F)c(F)c(F)c2F)c1 | 88.4
CCC(=O)Nc1nnc(-c2ccc(OC)cc2)o1 | 98.4
COc1ccc(F)cc1S(=O)(=O)Nc1ccc2c(c1)OCCO2 | 86.6
CC(=O)N1CCC(N(CCN2CCOCC2)C(=O)Nc2ccc(Cl)c(Cl)c2)CC1 | 95.6
Fc1ccc(Cc2nnc(-c3cccs3)o2)cc1 | 97.8
N#Cc1ccc(OCCN2C(=O)NC3(CCSC3)C2=O)cc1 (stereo unspecified) | 94.4

* * *

# assay-info: OD615 S. cerevisiae growth inhibition, permissive medium, pilot counter-assay, permissive growth control for S. cerevisiae lifespan shortening project (AID 705)
# condition-description: OD615, 24 h, at 10 µM, stronger effect = higher value
Overview of reported growth inhibition across a group of compounds:

compound | growth inhibition (%)
O=C(CCS(=O)(=O)c1cccc2nonc12)N1CCOCC1 | -6.54
Cc1ccc(-n2ncc3c(=O)[nH]c(SCC(=O)N4CCC(C)CC4)nc32)cc1C | -0.265
Cc1ccccc1C(=O)OCn1nnc2ccccc2c1=O | -1.86
CCc1ccc(C2CC(=O)NC(SCC(=O)OC(C)C)=C2C#N)cc1 (stereo not given) | -13.8
CC(=O)N1CCc2c(sc(NC(=O)c3ccc4c(c3)OCCO4)c2C#N)C1 | -0.37
COc1ccc(-n2c(Cn3c(=O)sc4ccccc43)nnc2SC)cc1 | -12.1
CCOCCCNC(=O)C(NC(=O)CNC(C)=O)c1ccc(Cl)cc1 (stereo not given) | -10.1
CCOC(=O)c1c(NC(=O)c2cccs2)sc2c1CCCC2 | -6.96
Cc1noc(C(=O)NCc2ccco2)c1Cl | -10.3
Nc1nonc1-n1nncc1-c1ccccc1 | -8.35
COc1ccc(C)cc1NC(=O)CN(c1ccccc1F)S(C)(=O)=O | -8.48
O=C(Nc1nc2c(s1)CCCC2)c1ccc(Br)o1 | 6.52
COc1ccc2nc(N3CCCC(C(=O)NCCCN4CCN(C)CC4)C3)sc2c1 (stereo not given) | -5.12
Clc1ccc(CCNc2ncnc3nc[nH]c23)cc1 | 12.7
O=c1c2cc(-c3ccccc3)sc2ncn1/N=C/c1ccco1 | -7.51

// data source = PubChem BioAssay
